- experimental_system: T1, Human ROR1 (receptor tyrosine kinase-like orphan receptor 1) (human, UniProt Q01973 30-937)
- T1 construct: also called hROR1; K562/ROR1
- T1 sequence (Q01973 30-937): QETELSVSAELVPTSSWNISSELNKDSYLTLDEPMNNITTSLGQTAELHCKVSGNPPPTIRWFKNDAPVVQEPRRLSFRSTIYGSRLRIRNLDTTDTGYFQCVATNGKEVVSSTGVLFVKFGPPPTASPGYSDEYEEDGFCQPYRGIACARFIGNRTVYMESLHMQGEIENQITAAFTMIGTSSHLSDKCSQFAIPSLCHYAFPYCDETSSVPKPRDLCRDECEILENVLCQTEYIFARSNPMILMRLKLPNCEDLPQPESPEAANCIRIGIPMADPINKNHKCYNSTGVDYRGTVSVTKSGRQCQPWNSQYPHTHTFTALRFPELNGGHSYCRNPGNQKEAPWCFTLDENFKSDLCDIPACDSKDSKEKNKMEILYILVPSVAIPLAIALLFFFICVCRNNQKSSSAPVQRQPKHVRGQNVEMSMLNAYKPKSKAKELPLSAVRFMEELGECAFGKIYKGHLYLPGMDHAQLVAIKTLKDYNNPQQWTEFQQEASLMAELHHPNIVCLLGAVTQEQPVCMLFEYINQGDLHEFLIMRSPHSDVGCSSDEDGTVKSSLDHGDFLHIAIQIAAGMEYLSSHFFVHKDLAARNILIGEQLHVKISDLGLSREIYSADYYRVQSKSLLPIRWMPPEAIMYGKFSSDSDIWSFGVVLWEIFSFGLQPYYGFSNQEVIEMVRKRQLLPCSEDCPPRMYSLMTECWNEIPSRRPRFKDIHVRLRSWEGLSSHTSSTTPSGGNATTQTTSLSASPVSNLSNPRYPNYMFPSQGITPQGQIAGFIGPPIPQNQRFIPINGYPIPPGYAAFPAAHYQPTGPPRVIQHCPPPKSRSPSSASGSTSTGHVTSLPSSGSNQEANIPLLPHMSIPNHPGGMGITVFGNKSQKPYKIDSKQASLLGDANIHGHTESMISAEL
- assay_procedure: flow cytometry on ROR1-expressing K562 and CHOK1 cells, mean (n = 2)
measurement_name: EC50 (nM)
Answers are plain numbers, in nM.

Observe how each entry below is paired with its result.
binder	unit_tag	meas_value
Clone V353 (VHH, human VH-only single-domain antibody, no VL) VHH: QVTLKESGGGLVKPGGSLRLSCAASGFTFSNAWMSWVRQAPGKGLEWVGRIKSKTDGGTTDYAAPVKGRFTISRDDSKNTLYLQMNSLKTEDTAVYYCARDFGRWGYYFDYWSQGTLVTVSS	nM	0.7
Clone V102 (VHH, human VH-only single-domain antibody, no VL) VHH: QVQLVESGGGLVQPGRSLRLSCTASGFTFGDYAMSWVRQAPGKGLEWVGFIRSKAYGGTTEYAASVKGRFTISRDDSQSIAYLQMDSLKTEDTAVYYCAKVGPSWDYYFDYWGQGTLVTVSS	nM	129
Clone V18 (VHH) VHH: QVQLVESGGGLVKPGGSLRLSCAASGFTFSNAWMSWVRQAPGKGLEWVGRIKSKTDGGTTDYAAPVKGRFTISRDDSKNSLYLQMNSLKTEDTAVYYCARDFGRWSYYFDYWGQGTLVTVSS	nM	0.2
Clone V86 (VHH, human VH-only single-domain antibody, no VL) VHH: QVQLLESGGGLVQPGGSLRLSCAASGFTFSSYAMSWVRQAPGKGLEWVSAISGSGGSTYYADSVKGRFTISRDNSKNTLYLQMNSLRAEDTAVYYCARVIFGVVNIPDYWGQGTLVTVSS	nM	97.7

Then this binder:
Return value of EC50 for input Clone V95 (VHH, human VH-only single-domain antibody, no VL) VHH: QVQLVESGGGLVKPGGSLRLSCAASGFTFSNAWMSWVRQAPGKGLEWVGRIKSKTDGGTTDYAAPVKGRFTISRDDSKKTLYLQMNSLKTEDTAVYYCARGSGELRFLESYYFDYWGQGTLVTVSS , no commentary. 35.5
